System: Immortalised Mouse Dermal Fibroblasts (MDFs)
Procedure Text: Cellular assay: inhibition of TSI induced necroptosis, CellTitre-Glo viability
Measurement Conditions: Mus musculus, Fibroblast; MDF, 3 hours TSI cocktail, Table 27; read-out: Inhibition of TSI-induced necroptosis (IC50 cell-based assay) in MDF
I'd be grateful if you could share measured IC50 for these entries.

Worked cases, IC50 given:
>>> reported_result("C[C@H](Oc1cc(-c2nn(C)c3c(-c4cnn(C5CCN(C(=O)c6cccc(C(=O)NC7CCC(=O)NC7=O)c6)CC5)c4)cnc(N)c23)ccc1NS(=O)(=O)C(F)F)c1ccc(F)cc1 (some centres unmarked) [Compound 1084]")
"1000 to 10000 nM"
>>> reported_result("Cc1ncsc1-c1ccc(CNC(=O)[C@@H]2C[C@@H](O)CN2C(=O)[C@@H](NC(=O)CN2CCC(n3cc(-c4cnc(N)c5c(-c6ccc(NS(=O)(=O)C(F)F)c(O[C@@H](C)c7ccc(F)cc7)c6)nn(C)c45)cn3)CC2)C(C)(C)C)cc1 [Compound 1016]")
"< 1000 nM"
>>> reported_result("C[C@H](Oc1cc(-c2nn(C)c3c(-c4cnn(C5CCN(Cc6ccc(CNc7cccc8c7C(=O)N(C7CCC(=O)NC7=O)C8=O)cc6)CC5)c4)cnc(N)c23)ccc1NS(=O)(=O)C(F)F)c1ccc(F)cc1 (some centres unmarked) [Compound 1115]")
"< 1000 nM"
>>> reported_result("C[C@H](Oc1cc(-c2nn(C)c3c(-c4cnn(C5CCN(CCN6CCCC(COc7cccc8c7C(=O)N(C7CCC(=O)NC7=O)C8=O)C6)CC5)c4)cnc(N)c23)ccc1NS(=O)(=O)C(F)F)c1ccc(F)cc1 (some centres unmarked) [Compound 1132]")
"< 1000 nM"
>>> reported_result("Cc1ncsc1-c1ccc(CNC(=O)[C@@H]2C[C@@H](O)CN2C(=O)[C@@H](NC(=O)CCCCC#Cc2cnc(N)c3c(-c4ccc(NS(=O)(=O)C(F)F)c(O[C@@H](C)c5ccc(F)cc5)c4)nn(C)c23)C(C)(C)C)cc1 [Compound 1026]")
"1000 to 10000 nM"

State recorded IC50 for all listed compounds.
1. C[C@H](Oc1cc(-c2nn(C)c3c(-c4cnn(C5CCC(C(=O)N6CCC(c7cccc8c7C(=O)N(C7CCC(=O)NC7=O)C8=O)CC6)CC5)c4)cnc(N)c23)ccc1NS(=O)(=O)C(F)F)c1ccc(F)cc1 (some centres unmarked) [Compound 1127]
2. C[C@H](Oc1cc(-c2nn(C)c3c(-c4cnn(C5CCN(C(=O)CC6CCCN(c7cccc8c7C(=O)N(C7CCC(=O)NC7=O)C8=O)C6)CC5)c4)cnc(N)c23)ccc1NS(=O)(=O)C(F)F)c1ccc(F)cc1 (some centres unmarked) [Compound 1073]
3. Cn1nc(-c2ccc(NS(=O)(=O)CC(F)(F)F)c(F)c2)c2c(N)ncc(-c3cnn(C4CCN(C(=O)[C@H]5C[C@H](Nc6cccc7c6C(=O)N(C6CCC(=O)NC6=O)C7=O)C5)CC4)c3)c21 (some centres unmarked) [Compound 1134]
4. C[C@H](Oc1cc(-c2nn(C)c3c(-c4cnn(C5CCN(C(=O)CCC6CCN(c7cccc8c7C(=O)N(C7CCC(=O)NC7=O)C8=O)CC6)CC5)c4)cnc(N)c23)ccc1NS(=O)(=O)C(F)F)c1ccc(F)cc1 (some centres unmarked) [Compound 1043]
5. Cc1ncsc1-c1ccc(CNC(=O)[C@@H]2C[C@@H](O)CN2C(=O)[C@@H](NC(=O)COCCN2CCC(n3cc(-c4cnc(N)c5c(-c6ccc(NS(=O)(=O)C(F)F)c(O[C@@H](C)c7ccc(F)cc7)c6)nn(C)c45)cn3)CC2)C(C)(C)C)cc1 [Compound 1018]

A)
1. < 1000 nM
2. < 1000 nM
3. < 1000 nM
4. < 1000 nM
5. 1000 to 10000 nM

State recorded IC50 for all listed compounds.
1. C[C@H](Oc1cc(-c2nn(C)c3c(-c4cnn(C5CCN(C(=O)C6CN(c7cccc8c7C(=O)N(C7CCC(=O)NC7=O)C8=O)C6)CC5)c4)cnc(N)c23)ccc1NS(=O)(=O)C(F)F)c1ccc(F)cc1 (some centres unmarked) [Compound 1051]
2. Cc1ncsc1-c1ccc(CNC(=O)[C@@H]2C[C@@H](O)CN2C(=O)[C@@H](NC(=O)CCCCOC(=O)c2ccc(-c3cnc(N)c4c(-c5ccc(NS(=O)(=O)C(F)F)c(O[C@@H](C)c6ccc(F)cc6)c5)nn(C)c34)cc2)C(C)(C)C)cc1 [Compound 1064]
3. Cc1ncsc1-c1ccc(CNC(=O)[C@@H]2C[C@@H](O)CN2C(=O)[C@@H](NC(=O)CCCCCn2cc(-c3cnc(N)c4c(-c5ccc(NS(=O)(=O)C(F)F)c(O[C@@H](C)c6ccc(F)cc6)c5)nn(C)c34)cn2)C(C)(C)C)cc1 [Compound 1066]
4. C[C@H](Oc1cc(-c2nn(C)c3c(-c4cnn(C5CCN(C(=O)c6ccc7c(N8CCC(=O)NC8=O)coc7c6)CC5)c4)cnc(N)c23)ccc1NS(=O)(=O)C(F)F)c1ccc(F)cc1 [Compound 1117]

A)
1. 1000 to 10000 nM
2. 1000 to 10000 nM
3. 1000 to 10000 nM
4. 1000 to 10000 nM
